Test Conditions: buffer; pH 7.4; 200.0 µM
Below, each entry is listed alongside its reported log10(solubility kinetic).
Assay Metric: log10(solubility kinetic) (log10 of the value in µg/mL)

• O=C(CN1C(=O)/C(=C2/SC(=S)N(CCS(=O)(=O)O)C2=O)c2ccccc21)Nc1cccc(Br)c1 = 1.16
• Cc1cccc(NC(=O)N2C3CCCC2CC(NC(=O)C2CC2)C3)c1 (centres undefined) = 1.36
• CC(=O)c1cccc(NC(=O)c2cc(=O)[nH]c3ccc(S(=O)(=O)N4CCOCC4)cc23)c1 = 0.93
• Cc1cc(O)ccc1Nc1nc(-c2cccnc2)cs1 = 0.26
• COc1ccc(Cl)cc1C(=O)Nc1ccc2c(c1)OCCO2 = -0.05
• COc1ccc(OC)c2sc(N(CCN(C)C)C(=O)c3ccc4ccccc4c3)nc12.Cl = 0.93
• CCOC(=O)c1cc(NCc2cccs2)ccc1N1CCOCC1 = 1.70
• Cc1ccc(Nc2nc3ccccc3c(=O)[nH]2)cc1C = -0.40
• Cc1nc2ccccc2n1CC(O)c1ccccc1 (centres undefined) = 1.53
• CC(=O)Nc1ccc(C(=O)NCC(=O)OCc2ccccc2F)cc1 = 0.88
• CCOC(=O)c1cc(C(C)(C)C)n(CCCN2CCOCC2)c1C = 1.68
• Cc1ccc(S(=O)(=O)CC(=O)Nc2ccc(Cl)cn2)cc1 = 0.73
• COc1cccc(N2CC(C)Cn3c2nc2c3c(=O)[nH]c(=O)n2C)c1 (centres undefined) = 1.36

----------
Test Conditions: buffer; pH 7.4; 200.0 µM
solubility kinetic of 10 µg/mL or higher: MET. Under 10 µg/mL: NOT MET.

* CCCCC(=O)NC1(C(F)(F)F)NC(=O)N(Cc2ccccc2)C1=O (stereo unspecified) | MET
* CCOc1ccc(NC(=S)NC(=O)C2CCCC2)cc1 | NOT MET
* Cc1nc(N2CCOCC2)nc(N2CCC(C)CC2)c1[N+](=O)[O-] | MET
* COc1ccccc1NC(=S)NC12CN3CN(CN(C3)C1)C2 | MET
* O=C(NC(Cc1ccc(O)cc1)C(=O)O)c1ccco1 (stereo unspecified) | MET
* COc1ccc(C(=O)OCC(=O)c2c[nH]c3ccccc23)c(OC)c1 | NOT MET

----------
Below, each entry is listed alongside its reported solubility kinetic.
Test Conditions: buffer; pH 7.4; 200.0 µM
Assay Metric: solubility kinetic

- Cc1c(-c2ccc(Cl)cc2)[n+](=O)c2c(n1[O-])CCCC2: > 0.0436 mg/mL
- Cc1cnc(NC(=O)CSCc2c(C)noc2C)s1: 0.0196 mg/mL
- Cc1nc2nc(SCC(=O)c3ccccc3)[nH]c2cc1Br: < 0.0003 mg/mL
- Cc1ccc(NC(=O)COc2ccc(Br)cc2CO)cc1S(=O)(=O)N1CCOCC1: 0.0211 mg/mL
- Cc1onc(-c2c(F)cccc2Cl)c1C(=O)N=C(N)N1CC(C)OC(C)C1 (stereo unspecified): 0.0008 mg/mL
- Cc1csc(NC(=O)c2sccc2C)n1: > 0.0357 mg/mL

----------
Below, each entry is listed alongside its reported solubility kinetic.
Test Conditions: buffer; pH 7.4; 200.0 µM
Assay Metric: solubility kinetic (µg/mL)

• COc1ccc(S(=O)(=O)N(C)C(C)CCc2ccco2)cc1 (configuration not stated) = 35
• CC(=O)Nc1ccc(NC(=O)COC(=O)COc2ccc3ccccc3c2)cc1 = 9.7
• CC(C)(C)c1ncc(S(=O)(=O)c2ccc(C(F)(F)F)cn2)c(N)n1 = 1.4
• O=C(CN1C(=O)c2ccccc2S1(=O)=O)Nc1ccc([N+](=O)[O-])cc1 = 6
• CCc1ccc(NC(=O)c2cc(C)no2)cc1 = 14.3
• O=S(=O)(CC(c1ccccc1)N1CCCCC1)c1ccc(Cl)cc1 (configuration not stated) = 4.2
• CC(C)(C)C(=O)N(Cc1ccc(Cl)cc1)Cc1cccnc1 = 42.6
• CN1C(=O)C(=Cc2ccc(N3CCCCCC3)cc2)C(=O)N(C)C1=O = 7
• Cc1ccc(C(=O)NCCONC(=O)c2ccc(C)cc2)cc1 = 45.6
• Cc1ccccc1CC1SC(N)=NC1=O (configuration not stated) = 21.8
• CC1CCCC(NC(=O)COC(=O)c2ccccc2[N+](=O)[O-])C1C (configuration not stated) = 48.6
• O=C(Cn1cnc2ccccc21)c1ccc(Cl)cc1 = 28.9
• O=C(NC1CC2CCCC(C1)N2C(=O)Nc1cccc(F)c1)C1CC1 (configuration not stated) = 16.3
• COC(=O)c1ccccc1Oc1ccc(NC(=O)c2ccco2)cc1 = 49.6
• Cc1ccc2cc([N+](=O)[O-])ccc2n1 = 20.5
• CCOc1ccc(S(=O)(=O)N2CCN(C(=O)c3cc4ccccc4o3)CC2)cc1 = 6
• Cc1ccc(CNC(=O)C(C)C2Sc3ccccc3NC2=O)cc1 (configuration not stated) = 1.6
• COc1ccc(C(=O)Nc2ccncc2)cc1[N+](=O)[O-] = 36
• COc1ccc(C(=O)OCC(=O)c2ccc3[nH]c(=O)[nH]c3c2)c(OC)c1OC = 20.3
• Cc1ccc(-c2nc(NCCCO)c3ccccc3n2)cc1 = 37.3
• C=CCN1C(=O)C(C)(C)N(C(=O)c2cccc([N+](=O)[O-])c2)c2ccccc21 = 23.5
• COc1ccccc1CNC(=O)COc1ccccc1C = 38.4
• O=C(Nc1nccs1)c1ccc(Br)cc1 = 2.2
• O=C(C1=C(O)C(=O)N(c2ncccn2)C1c1ccc(F)cc1)c1ccco1 (configuration not stated) = 53.1
• O=C(NC1CCN(c2ncccn2)CC1)c1ccccc1F = 39.7

----------
Test Conditions: buffer; pH 7.4; 200.0 µM
Below, each entry is listed alongside its reported log10(solubility kinetic).
Assay Metric: log10(solubility kinetic) (log10 of the value in µg/mL)

• CCOc1ccccc1C(=O)OCC(=O)Nc1cccc(S(=O)(=O)N2CCCC2)c1 = 1.28
• Cc1ccc(C2N=C(N)Nc3nc(=O)c4ccccc4n32)cc1 (stereo unspecified) = 0.49
• O=[N+]([O-])c1ccc(Sc2cc[n+]([O-])c3ccccc23)c([N+](=O)[O-])c1 = 0.66
• CCc1nc(NCCO)c(C#N)c2c1CCCC2 = 1.55
• COc1cc2c(cc1OC)CN(C(=O)COc1ccccc1C#N)CC2 = 1.18
• Cn1c(Nc2ccccc2)nc2ccccc21 = 1.41
• CC1=C(C(=O)OCc2ccccc2)C(c2cccc(F)c2)NC(=O)N1 (stereo unspecified) = 0.40
• O=C(Nc1ccc(F)cc1F)Nc1csc2ccccc12 = -0.22
• O=C(O)c1cccc(OCCN2CCCC2=O)c1 = 1.54

----------
Below, each entry is listed alongside its reported solubility kinetic.
Test Conditions: buffer; pH 7.4; 200.0 µM
Assay Metric: solubility kinetic (µg/mL)

- COc1cccc(/C=C2\SC(N3CCC(C)CC3)=NC2=O)c1OC: 21.5
- Cc1ccc(NC(=S)NC(=O)C2CC2)c(C)c1: 5.9
- COC(=O)c1ccc(COC(=O)C2CCN(S(=O)(=O)c3ccccc3C(=O)OC)CC2)cc1: 11
- CSc1ccccc1C(=O)Nc1cc([N+](=O)[O-])ccc1C: 2
- COc1ccccc1NC(=O)CC(c1ccc(F)cc1)c1ccco1 (stereo unspecified): 21.2

----------
Test Conditions: buffer; pH 7.4; 200.0 µM
Below, each entry is listed alongside its reported solubility kinetic.
Assay Metric: solubility kinetic (µg/mL)

* Cc1cc(=O)[nH]c2c(C)cc(S(=O)(=O)Nc3ccc(O)cc3)cc12 | 49.7
* O=c1[nH]c2cccnc2n1-c1cccc([N+](=O)[O-])c1 | 17
* Clc1cccc(C2Nc3cccc4cccc(c34)N2)c1 | 5.3
* COc1ccc(C(=O)CC(=O)C(=O)Nc2ccc(Cl)cc2)cc1 | 5.5
* Cc1ccc(Cn2cc(C=O)c3ccccc32)cc1 | 11.7
* CCCS(=O)(=O)N1CCCC(C(=O)Oc2ccc(OC)cc2)C1 (stereo not given) | 40.5
* CCCC(C)NC(=S)Nc1cc(C)cc(C)c1 (stereo not given) | 25.2
* O=C(Nc1cccc(Cl)c1)c1ccc2ncsc2c1 | 21.2
* CCC(C)c1ccc(NC(=O)N2CCOCC2)cc1 (stereo not given) | 37.4
* CCCN1CNC(=S)N(c2cccc(C)c2)C1 | 37.2
* Cc1ccccc1N1CCN(CC(=O)NCc2ccc(Cl)cc2)CC1 | 19.6
* O=C(CC(Nc1cccc(Cl)c1Cl)C(=O)O)c1ccccc1 (stereo not given) | 43.2
* Cc1ccccc1CN1C(=O)c2ccccc2S1(=O)=O | 2.5
* Cc1ccc(C(=O)OCC(=O)NC2CCCCCC2)c(C)c1 | 4.6
* O=[N+]([O-])c1cccc(CN2CC=C(c3ccc(F)cc3)CC2)c1 | 3.3
* CC(C)(C)OC(=O)N1CCC[C@H]1C(=O)Nc1ccc(C#N)cc1 | 40.7
* CCCCOc1cc(C(=O)OCCN(CC)CC)ccc1N | 42.7
* CCc1cccc(NC(=O)C2CCCN2C(=O)Nc2ccc(C)cc2)c1 (stereo not given) | 1.2
* O=[N+]([O-])c1ccccc1S(=O)(=O)N1CCSCC1 | 34.2
* COc1ccc(-c2noc(=O)n2Cc2ccc(F)cc2Cl)cc1 | 3.5
* COc1ccc(CCN(C)Cc2cccc3ccccc23)cc1OC | 37.1
* CC(C)c1ccc(OCC(=O)NC(C)c2ccccc2)cc1 (stereo not given) | 16.5
* CCC1CCCCN1Cc1c(O)ccc2c(=O)c(-c3ccccc3OC)coc12 (stereo not given) | 51.3
* CC(=O)Nc1ccc(OCCOc2ccc(NC(C)=O)cc2)cc1 | 2.2
* O=C(COC(=O)Cc1ccc(Cl)cc1)Nc1ccccc1F | 20.8
